tested on: Mus musculus; assay: Neurotoxicity in albino CF1 mouse at 100 mg/kg, ip measured after 0.5 hr; type: toxicity, organism-based; design: dose 100 mg/kg, route intraperitoneal; settings: in vivo
endpoint name: Activity

The cases that follow already have their Activity on record.
O=C1NC(=O)[C@@H]2CCCCN2[C@H]1c1cccc(C(F)(F)F)c1 : Non-toxic
O=C1NC(=O)[C@@H](c2cccc(C(F)(F)F)c2)N2CCC[C@@H]12 : Non-toxic
O=C1NC(=O)[C@@H]2CCCN2[C@H]1c1cccc(OC(F)(F)F)c1 : Toxic
O=C1NC(=O)[C@@H]2CCCN2[C@H]1c1c(F)cccc1F (mixture of isomers) : Non-toxic
Cl.O=C1NC(=O)[C@@H](c2cccc(C(F)(F)F)c2)N2CCC[C@H]12 : Non-toxic

Query :: # lookup: Activity of O=C1NC(=O)[C@@H]2CCCN2[C@H]1c1ccc(C(F)(F)F)cc1
Result :: Non-toxic
